assay: Therapeutic index, ratio of TOX50 for rat L6 cells to IC50 Plasmodium falciparum 3D7; type: cell-based
recorded_endpoint: TI
Give bare numbers.

// TI lookup, compound = CCS(=O)(=O)N1CCC2(CC1)OOC1(OO2)C2CC3CC(C2)CC1C3 , result: 5640

* * *

Provide the reported CC50 of each item.
experiment: Cytotoxicity against african green monkey Vero cells by resazurin reduction assay; type: cell-based; settings: chlorocebus sabaeus, read-out: TC50 (the source's name)

[
  {
    "smiles_code": "CCS(=O)(=O)N1CCC2(CC1)OOC1(OO2)C2CC3CC(C2)CC1C3",
    "CC50": "> 50 µM"
  }
]

Now let's try a different one.
// CC50 lookup, compound = O=S(=O)(C1CC1)N1CCC2(CC1)OOC1(OO2)C2CC3CC(C2)CC1C3 , result: > 50 µM

* * *

test system: Salmonella typhimurium; experiment: Genotoxicity against Salmonella Typhimurium NM2009 assessed as induction of umu operon expression; assay type: toxicity, organism-based; conditions: salmonella enterica subsp. enterica serovar typhimurium
Provide the reported Activity of each item.
One number for each entry.

Study these solved cases before continuing.
[
  {
    "compound": "O=C(CC1CCC2(CC1)OOC1(OO2)C2CC3CC(C2)CC1C3)N1CCOCC1 (centres undefined)",
    "Activity": 1.22
  },
  {
    "compound": "CCS(=O)(=O)N1CCC2(CC1)OOC1(OO2)C2CC3CC(C2)CC1C3",
    "Activity": 1.07
  },
  {
    "compound": "O=S(=O)(C1CC1)N1CCC2(CC1)OOC1(OO2)C2CC3CC(C2)CC1C3",
    "Activity": 1.09
  }
]

// Activity lookup, compound = Nc1ccc2cc3ccccc3cc2c1 , result: 1.08

* * *

experiment: Therapeutic index, ratio of TOX50 for human MRC5 cells to IC50 Plasmodium falciparum 3D7; format: cell-based
recorded_endpoint: TI

[
  {
    "smiles_code": "CCS(=O)(=O)N1CCC2(CC1)OOC1(OO2)C2CC3CC(C2)CC1C3",
    "recorded_endpoint": "TI",
    "observed_value": "> 9090"
  }
]

// TI lookup, compound = O=S(=O)(C1CC1)N1CCC2(CC1)OOC1(OO2)C2CC3CC(C2)CC1C3 , result: > 14300

* * *

tested on: Plasmodium falciparum; assay: Antimalarial activity against Plasmodium falciparum TM4; type: functional, organism-based
Provide the reported IC50 of each item.
Numbers only, in nM.

[
  {
    "smiles_code": "CCS(=O)(=O)N1CCC2(CC1)OOC1(OO2)C2CC3CC(C2)CC1C3",
    "IC50 (nM)": 2.4
  }
]

CCN(CC)Cc1cc(Nc2ccnc3cc(Cl)ccc23)ccc1O tested on Plasmodium falciparum gave IC50: 6.4

* * *

assay: Chemical stability in phosphate buffer assessed as tetraoxane recovery at pH 7.4 after 16 hrs; format: physicochemical; conditions: read-out: Stability
recorded_endpoint: remaining at 16 h

// remaining at 16 h lookup, compound = CCS(=O)(=O)N1CCC2(CC1)OOC1(OO2)C2CC3CC(C2)CC1C3 , result: 93.2%

* * *

assay: Chemical stability in dichloromethane in presence of formic acid assessed as tetraoxane recovery after 7 days; assay type: physicochemical; settings: dichloromethane with formic acid; read-out: Stability
recorded_endpoint: remaining at 168 h

// remaining at 168 h lookup, compound = CCS(=O)(=O)N1CCC2(CC1)OOC1(OO2)C2CC3CC(C2)CC1C3 , result: 92.3%

* * *

Provide the reported TI of each item.
assay: Therapeutic index, ratio of TOX50 for human […] cells to IC50 Plasmodium falciparum 3D7; format: cell-based

[
  {
    "smiles_code": "CCS(=O)(=O)N1CCC2(CC1)OOC1(OO2)C2CC3CC(C2)CC1C3",
    "observed_value": "> 9090"
  }
]

Now let's try a different one.
// TI lookup, compound = O=S(=O)(C1CC1)N1CCC2(CC1)OOC1(OO2)C2CC3CC(C2)CC1C3 , result: > 14300

* * *

assay: Cytotoxicity against rat H9c(2-1) cells by resazurin reduction assay; type: cell-based; details: read-out: TC50 (the source's name)
recorded_endpoint: CC50

[
  {
    "smiles_code": "O=S(=O)(C1CC1)N1CCC2(CC1)OOC1(OO2)C2CC3CC(C2)CC1C3",
    "CC50": "> 50 µM"
  }
]

Now let's try a different one.
// CC50 lookup, compound = CCS(=O)(=O)N1CCC2(CC1)OOC1(OO2)C2CC3CC(C2)CC1C3 , result: > 50 µM

* * *

experiment: Chemical stability in dichloromethane assessed as tetraoxane recovery after 7 days; type: physicochemical; details: read-out: Stability
recorded_endpoint: remaining at 168 h (%)
Give bare numbers, in %.

// remaining at 168 h lookup, compound = CCS(=O)(=O)N1CCC2(CC1)OOC1(OO2)C2CC3CC(C2)CC1C3 , result: 96.2
